Molecular target: Recombinant human cathepsin K (Homo sapiens, UniProt P43235)
Sequence (P43235 115-329): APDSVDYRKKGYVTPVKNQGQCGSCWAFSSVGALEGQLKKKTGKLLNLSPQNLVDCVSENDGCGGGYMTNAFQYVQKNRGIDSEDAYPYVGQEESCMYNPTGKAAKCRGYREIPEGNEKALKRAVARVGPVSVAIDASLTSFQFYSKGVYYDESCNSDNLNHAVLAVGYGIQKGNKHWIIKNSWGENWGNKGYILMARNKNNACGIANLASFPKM
Assay: Inhibition of cathepsin K activity (Z-Phe-Arg-AMC fluorescence assay)
Details: 25 uM Z-Phe-Arg-AMC, pH 5.5, 1 hour at 37° C.
Structures can show the parent of a compound that is named as a salt.
Experimental endpoint: pIC50
// field semantics: pIC50 = negative decimal log of concentration (mol/L)

Solved cases below.
{"columns": ["Molecule", "Measured number"],
 "data": [
  ["Cc1c(C(=O)NC2(C(=O)NC3CCN(c4cc(F)ccc4C(F)(F)F)CC3=O)CCCCC2)oc2ccccc12 (stereo not shown)", 8.22],
  ["CS(=O)(=O)c1ccccc1N1CCC(NC(=O)C2(NC(=O)c3ccc(OCCN4CCOCC4)cc3)CCCCC2)C(=O)C1 (stereo not shown) [Example 158, hydrochloride]", 8.50],
  ["CS(=O)(=O)c1ccc(N2CCC(NC(=O)C3(NC(=O)c4cc5ccccc5o4)CCCCC3)C(=O)C2)cc1 (stereo not shown)", 8.30],
  ["CCOc1ccccc1N1CCC(NC(=O)C2(NC(=O)c3cc4ccccc4o3)CCCCC2)C(=O)C1 (stereo not shown)", 8.09],
  ["CS(=O)(=O)c1ccccc1N1CCC(NC(=O)C2(NC(=O)c3cc4cc(OCCN5CCCC5)ccc4o3)CCCCC2)C(=O)C1 (stereo not shown) [Example 162]", 9.35]
]}

Quick one: pIC50 of CC(C)S(=O)(=O)c1ccccc1N1CCC(NC(=O)C2(NC(=O)c3ccc(Cl)s3)CCCCC2)C(=O)C1 (stereo not shown) ?
8.63

Quick one: pIC50 of CS(=O)(=O)c1ccccc1N1CCC(NC(=O)C2(NC(=O)c3cc4cc(OCCN5CCCCC5)ccc4o3)CCCCC2)C(=O)C1 (stereo not shown) [Example 163] ?
9.26
